Taken from the Deep4Chem optical property database.

assay: solvent given as SMILES; conditions: in ClC(Cl)Cl
result-type: log10 of fluorescence lifetime (log10 of the value in ns)
All values: log10 fluorescence lifetime [ns].

compound	result-type	value
CN(C)c1ccc(/C=C/C(=C(C#N)C#N)c2ccc3c4c(cccc24)CC3)cc1	log10 of fluorescence lifetime	0.63

Task: Which measured log10 of fluorescence lifetime value corresponds to Cc1ccc(C2=C3C=CC(C#Cc4ccccc4)=[N+]3[B-](F)(F)n3c(C#Cc4ccccc4)ccc32)cc1 ?
Result: 0.82

Task: Which measured log10 of fluorescence lifetime value corresponds to COC(=O)C(Cc1ccc2oc(-c3ccc4c(c3)c3ccccc3n4-c3ccccc3)nc2c1)NC(=O)OC(C)(C)C (centres undefined) ?
Result: 0.12

Task: Which measured log10 of fluorescence lifetime value corresponds to CCCCCCN1C(=O)c2cc(-c3ccc(-n4c5ccccc5c5ccccc54)cc3)c(-c3ccc(-n4c5ccccc5c5ccccc54)cc3)cc2C1=O ?
Result: 1.05

Task: Which measured log10 of fluorescence lifetime value corresponds to N#Cc1ccc(C#Cc2ccccc2C#N)cc1 ?
Result: 0.42

Task: Which measured log10 of fluorescence lifetime value corresponds to CCOC(=O)C(C(=O)OCC)C1=[N+]2C(=C(c3ccc(C)cc3)c3ccc(C(C(=O)OCC)C(=O)OCC)n3[B-]2(F)F)C=C1 ?
Result: 0.56

Task: Which measured log10 of fluorescence lifetime value corresponds to COc1ccc(N(c2ccc(OC)cc2)c2ccc(-c3ccc(-c4ccc(-c5ccc(-c6ccc(N(c7ccc(OC)cc7)c7ccc(OC)cc7)cc6)s5)c5nsnc45)s3)cc2)cc1 ?
Result: 0.69

Task: Which measured log10 of fluorescence lifetime value corresponds to COc1cc(OC)cc(-c2ccc(-c3ccc(C#N)s3)s2)c1 ?
Result: -0.66

Task: Which measured log10 of fluorescence lifetime value corresponds to CCN(CC)c1ccc2cc(-c3ccc(-c4ccc5ccc6c(-c7ccc(-c8cc9ccc(N(CC)CC)cc9oc8=O)cc7)ccc7ccc4c5c76)cc3)c(=O)oc2c1 ?
Result: 0.93

Task: Which measured log10 of fluorescence lifetime value corresponds to CCc1ccc(-n2c3ccccc3c3cc4c(cc32)c2ccccc2n4-c2ccc(CC)cc2)cc1 ?
Result: 0.56

Task: Which measured log10 of fluorescence lifetime value corresponds to N#Cc1ccc(-c2cc(-c3ccc(N4CCCC4)cc3)nc(-c3ccccc3)n2)cc1 ?
Result: 0.52

Task: Which measured log10 of fluorescence lifetime value corresponds to CN(C)c1ccc(/C=C/C=C2\CC/C(=C\c3ccc(N(C)C)cc3)C2=O)cc1 ?
Result: -0.01

Task: Which measured log10 of fluorescence lifetime value corresponds to CC1(C)c2cc(C#N)ccc2-c2ccc(N3c4ccccc4Oc4ccccc43)cc21 ?
Result: 1.06

Task: Which measured log10 of fluorescence lifetime value corresponds to COc1cc2c(cc1/C=C/C1=CC(=C(C#N)C#N)CC(C)(C)C1)c1ccccc1n2C ?
Result: 0.97

Task: Which measured log10 of fluorescence lifetime value corresponds to O=c1oc2ccccc2cc1-c1ccc(-c2cc3ccccc3oc2=O)cc1 ?
Result: 0.15

Task: Which measured log10 of fluorescence lifetime value corresponds to CSc1ccc(C#Cc2ccc(C#Cc3ccc(C#Cc4ccccc4C#N)cc3C#N)cc2C#N)cc1 ?
Result: 0.11

Task: Which measured log10 of fluorescence lifetime value corresponds to Cc1ccc(C(=O)NN2C3=C(CC4=C2CCCC4=O)C(=O)CCC3)cc1 ?
Result: 0.90

Task: Which measured log10 of fluorescence lifetime value corresponds to CC(C)(C)c1ccc(C2=c3sc(-c4ccc(C(C)(C)C)cc4)cc3=[N+]3C2=Nc2c(-c4ccc(C(C)(C)C)cc4)c4sc(-c5ccc(C(C)(C)C)cc5)cc4n2[B-]3(F)F)cc1 ?
Result: 0.23

Task: Which measured log10 of fluorescence lifetime value corresponds to CCCC1(CCC)c2cc(C=C(C#Cc3ccccc3)C#Cc3ccccc3)ccc2-c2ccc(C=C(C#Cc3ccccc3)C#Cc3ccccc3)cc21 ?
Result: -0.22

Task: Which measured log10 of fluorescence lifetime value corresponds to CC1(C)c2ccccc2-c2ccc(N3c4ccc(-c5ccc(/C=C6\C(=O)c7ccc(C(=O)O)cc7C6=O)s5)cc4C4CCCC43)cc21 (centres undefined) ?
Result: 0.02

Task: Which measured log10 of fluorescence lifetime value corresponds to CC(=O)O[B-]1(OC(C)=O)OC(/C=C/C=C/c2ccccc2)=CC(/C=C/C=C/c2ccccc2)=[O+]1 ?
Result: 0.29

Task: Which measured log10 of fluorescence lifetime value corresponds to CCN(CC)c1ccc2c(-c3ccccc3C(=O)O)c3c([o+]c2c1)/C(=C/Nc1ccccc1)CCC3 ?
Result: 0.50

Task: Which measured log10 of fluorescence lifetime value corresponds to CC1=CC(C)=[N+]2C1=C(c1ccc(I)cc1)c1c(C)cc(C)n1[B-]2(Oc1ccccc1)Oc1ccccc1 ?
Result: -0.42

###

// values below are reported fluorescence lifetime
test: solvent given as SMILES; conditions: in ClC(Cl)Cl
Enter your answer as a number in ns; do not include the unit.

// known answers, use as guide
molecule	reading-unit	fluorescence lifetime
C(=C\c1ccc(/C=C/c2ccc(N(c3ccccc3)c3ccccc3)cc2)c2nsnc12)/c1ccc(N(c2ccccc2)c2ccccc2)cc1	ns	4.21
CCCCCCc1cc(-c2ccc3c(c2)C2CCCC2N3c2ccc3c(c2)C(C)(C)c2ccccc2-3)sc1/C=C1\C(=O)c2ccc(C(=O)O)cc2C1=O (centres undefined)	ns	1.32
CCCCCCn1c2ccccc2c2cc3c4cc5c6ccccc6n(CCCCCC)c5cc4c4cc5c(C)cc(=O)oc5cc4c3cc21	ns	3.1

Task: Which measured fluorescence lifetime value corresponds to CC[n+]1c(C=C2C(=O)C(C=C3N(C)c4ccccc4C3(C)C)=C2[O-])sc2ccccc21 ?
Result: 1.95

###

test: solvent given as SMILES; conditions: in CCOC(C)=O
result-type: fluorescence lifetime (ns)
Enter your answer as a number in ns; do not include the unit.

// known answers, use as guide
CN(C)c1ccc2nc(/C=C/c3cc4c5c(c3)CCCN5CCC4)c(=O)oc2c1 2.4
CCOc1cc2c(cc1/C=C/C(=C(C#N)C#N)c1ccccc1)c1ccccc1n2CC 5.19
COc1ccc2c(=O)c3c([nH]c2c1)-c1ccccc1NC3(C)C 8.04
CCNc1ccc2c(C(F)(F)F)cc(=O)oc2c1 4.83

Would you kindly look at the next entry?
Task: Which measured fluorescence lifetime value corresponds to CN(C)c1ccc(/C=C/C=C2\CC/C(=C\C=C\c3ccc(N(C)C)cc3)C2=O)cc1 ?
Result: 0.69

###

experiment: solvent given as SMILES; settings: in ClCCl
// values below are reported fluorescence lifetime
Enter your answer as a number in ns; do not include the unit.

// known answers, use as guide
COc1ccccc1C1=[N+]2C(=C(c3ccccc3)c3c4ccccc4c(-c4ccccc4OC)n3[B-]2(F)F)c2ccccc21 5.8
COC(=O)c1cc(=O)n(C)c2cc(-c3ccccc3N(C)C)sc12 1.23
C(=C\c1cc(-c2ccc3ccccc3c2)c(/C=C/c2ccc(N(c3ccccc3)c3ccccc3)cc2)cc1-c1ccc2ccccc2c1)/c1ccc(N(c2ccccc2)c2ccccc2)cc1 1.17
CN(C)c1ccc(/C=C/c2cc[n+](CCCOCC(COCCC[n+]3ccc(/C=C/c4ccc(N(C)C)cc4)cc3)(COCCC[n+]3ccc(/C=C/c4ccc(N(C)C)cc4)cc3)COCCC[n+]3ccc(/C=C/c4ccc(N(C)C)cc4)cc3)cc2)cc1 0.31
CCN1\C(=C/C=C/C=C/C2=[N+](CC)c3ccc4cc(Br)ccc4c3C2(C)C)C(C)(C)c2c1ccc1cc(Br)ccc21 1.46
CCN(CC)c1ccc2cc(C#N)c(=O)oc2c1 2.7

Would you kindly look at the next entry?
Task: Which measured fluorescence lifetime value corresponds to CC1=C2c3ccccc3C(c3ccc[nH]3)=[N+]2[B-](F)(F)n2cccc21 ?
Result: 6.71

###

test: solvent given as SMILES; details: in CCOC(C)=O
result-type: fluorescence lifetime (ns)
Enter your answer as a number in ns; do not include the unit.

// known answers, use as guide
compound	fluorescence lifetime [ns]
CCn1c2ccsc2c2c3nsnc3c3c4sccc4n(CC)c3c21	24.2
Nc1cc(N)cc(-c2nc3ccccc3s2)c1	3.84
CCN(CC)c1ccc2cc(-c3nc4ccccc4s3)c(=O)oc2c1	2.46
F[B-]1(F)n2cccc2C=C2C=CC=[N+]21	6.9
Cc1ccc(C2=C3C=CC(Cl)=[N+]3[B-](F)(F)n3c(Cl)ccc32)cc1	2.07

Task: Which measured fluorescence lifetime value corresponds to Cc1ccc(C2=C3C=CC(C#Cc4ccccc4)=[N+]3[B-](F)(F)n3c(Cl)ccc32)cc1 ?
Result: 4.34

###

assay: solvent given as SMILES; details: in CCCCCO
// assign fulfilled if fluorescence lifetime falls strictly below 1 ns, else not fulfilled (ties count as not fulfilled)

Worked cases, answers included:
compound	cat
COC(=O)C(Cc1ccc2oc(-c3ccc(N(C)C)cc3)nc2c1)NC(=O)OC(C)(C)C (stereo not given)	not fulfilled
O=C1CCCC2=C1CC1=C(CCCC1=O)N2NC(=O)c1ccc(O)cc1	not fulfilled
COC(=O)C(Cc1ccc2oc(-c3ccc(N(C)c4ccccc4)cc3)nc2c1)NC(=O)OC(C)(C)C (stereo not given)	not fulfilled
CCC1(CC)c2cc(-c3ccc(C(C)(C)C)cc3)ccc2-c2ccc(-c3ccc4c(c3)C(CC)(CC)c3cc(-c5ccc6c(c5)C(CC)(CC)c5cc(-c7ccc(C(C)(C)C)cc7)ccc5-6)ccc3-4)cc21	fulfilled

Shift focus to the following entry.
Task: Here's an entry: Cc1ccc(C(=O)NN2C3=C(CC4=C2CCCC4=O)C(=O)CCC3)cc1 . Is its fluorescence lifetime below 1 ns?
Result: not fulfilled
